- TEST TARGET: PI3K-p110δ (Homo sapiens, UniProt O00329)
- Sequence (O00329 whole entry): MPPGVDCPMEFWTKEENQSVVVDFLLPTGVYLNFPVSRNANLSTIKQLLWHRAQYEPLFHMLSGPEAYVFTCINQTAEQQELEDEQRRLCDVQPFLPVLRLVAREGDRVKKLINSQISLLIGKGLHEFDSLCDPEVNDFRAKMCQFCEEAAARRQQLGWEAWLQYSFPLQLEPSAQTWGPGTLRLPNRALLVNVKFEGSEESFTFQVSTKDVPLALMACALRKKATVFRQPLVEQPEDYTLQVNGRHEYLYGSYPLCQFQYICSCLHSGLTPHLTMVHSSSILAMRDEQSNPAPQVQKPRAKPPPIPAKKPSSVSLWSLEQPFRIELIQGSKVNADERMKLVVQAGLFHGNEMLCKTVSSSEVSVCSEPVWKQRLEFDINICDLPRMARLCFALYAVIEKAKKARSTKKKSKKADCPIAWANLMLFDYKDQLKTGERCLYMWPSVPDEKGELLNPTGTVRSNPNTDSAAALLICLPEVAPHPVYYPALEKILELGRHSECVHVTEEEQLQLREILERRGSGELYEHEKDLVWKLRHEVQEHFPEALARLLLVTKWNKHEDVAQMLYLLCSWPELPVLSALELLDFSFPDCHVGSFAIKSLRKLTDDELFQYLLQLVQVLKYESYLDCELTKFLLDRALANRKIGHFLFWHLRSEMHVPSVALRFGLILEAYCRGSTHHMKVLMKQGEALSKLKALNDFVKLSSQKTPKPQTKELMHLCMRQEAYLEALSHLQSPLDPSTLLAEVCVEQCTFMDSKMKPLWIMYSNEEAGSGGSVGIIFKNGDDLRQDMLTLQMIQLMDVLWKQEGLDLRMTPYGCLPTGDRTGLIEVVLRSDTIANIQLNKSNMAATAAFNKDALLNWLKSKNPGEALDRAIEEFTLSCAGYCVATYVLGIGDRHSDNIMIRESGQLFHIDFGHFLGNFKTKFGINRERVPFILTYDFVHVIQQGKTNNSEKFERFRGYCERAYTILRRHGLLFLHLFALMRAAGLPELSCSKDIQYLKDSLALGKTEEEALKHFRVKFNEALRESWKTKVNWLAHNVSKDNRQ
- Sequence (P27986 whole entry partner): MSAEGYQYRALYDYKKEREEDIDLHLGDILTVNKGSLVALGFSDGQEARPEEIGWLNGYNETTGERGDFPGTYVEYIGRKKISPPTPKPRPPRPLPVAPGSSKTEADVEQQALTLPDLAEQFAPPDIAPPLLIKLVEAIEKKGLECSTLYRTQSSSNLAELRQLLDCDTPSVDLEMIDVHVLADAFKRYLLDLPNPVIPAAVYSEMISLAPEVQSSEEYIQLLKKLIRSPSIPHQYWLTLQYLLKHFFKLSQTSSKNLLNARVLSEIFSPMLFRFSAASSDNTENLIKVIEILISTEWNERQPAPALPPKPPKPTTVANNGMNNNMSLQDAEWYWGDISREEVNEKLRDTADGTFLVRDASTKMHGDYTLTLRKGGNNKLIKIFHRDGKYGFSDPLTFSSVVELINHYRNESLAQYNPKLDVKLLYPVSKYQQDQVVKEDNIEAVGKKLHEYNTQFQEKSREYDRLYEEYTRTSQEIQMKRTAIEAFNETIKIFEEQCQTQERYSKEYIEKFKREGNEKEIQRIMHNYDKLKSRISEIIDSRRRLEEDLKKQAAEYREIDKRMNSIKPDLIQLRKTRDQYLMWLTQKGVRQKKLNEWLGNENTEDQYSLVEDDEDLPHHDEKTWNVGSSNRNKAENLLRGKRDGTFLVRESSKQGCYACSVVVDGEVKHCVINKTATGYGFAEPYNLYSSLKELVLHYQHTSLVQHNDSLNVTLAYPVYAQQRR
METRIC: pIC50
Please express pIC50 as -log10 of the molar concentration.

Checklist item: pIC50 tested on PI3K-p110δ (Homo sapiens, UniProt O00329), entry Nc1ccc(-c2cccc3c(=O)nc(N4CCOCC4)oc23)c(F)c1 , value? 5.77
